Where do the numbers come from? From patent US12329745B2.

test: Human plasma pharmacokinetics of SPI-62; format: in vivo; details: human, plasma, oral, single doses of 6 to 60 mg; read-out: Cmax means
quantity_measured: Cmax

Bench note: what Cmax did Cn1c(-c2ccc(C(N)=O)cc2F)nnc1C(C)(C)Oc1c(F)cc(Cl)cc1F show?
28 to 595 ng/mL

---

Below, each of the compounds is paired with its reported residence time value.
biological target: HSD-1 (Homo sapiens, UniProt P28845); assay: Surface plasmon resonance binding kinetics in presence of NADPH (residence time); settings: 300 μM NADPH; reciprocal of the dissociation rate constant
Sequence (P28845 whole entry): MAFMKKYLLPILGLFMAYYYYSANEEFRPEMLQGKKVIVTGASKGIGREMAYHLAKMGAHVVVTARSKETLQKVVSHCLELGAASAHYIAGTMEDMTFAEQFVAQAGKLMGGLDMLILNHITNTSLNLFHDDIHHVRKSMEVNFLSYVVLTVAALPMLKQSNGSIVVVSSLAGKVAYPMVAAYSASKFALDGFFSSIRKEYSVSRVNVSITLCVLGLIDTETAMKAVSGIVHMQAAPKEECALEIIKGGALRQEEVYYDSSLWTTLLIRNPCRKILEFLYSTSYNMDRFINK
The answer is to be given in s; state only the numeric part.

Bench note: what residence time did O=C(c1csc(-c2cn[nH]c2)c1)N1[C@@H]2CC[C@H]1C[C@](O)(c1ncccn1)C2 show?
543

Same again, this time with N#Cc1ccc(-c2ccc(S(=O)(=O)Nc3cccc(N)n3)cc2)cc1
304

Same again, this time with CNC(=O)c1ccc(-c2ccc(C3(C(=O)N4CC[C@@]5(C4)OC(=O)c4ccccc45)CC3)cc2)cn1
272

Same again, this time with O=C(CC1(c2ccccc2)C2CC3CC1CC(C2)C3O)N1CC(O)C1 (stereo not shown)
129
